Data origin: the emibetuzumab library of Makowski et al. (2022)

B1: VH:VL chains; a variant is named by its letters at X, in order (parent)
chain 1: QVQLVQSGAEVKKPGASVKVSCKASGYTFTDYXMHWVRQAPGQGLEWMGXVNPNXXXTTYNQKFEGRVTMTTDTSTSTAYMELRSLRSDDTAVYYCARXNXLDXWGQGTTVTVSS
chain 2: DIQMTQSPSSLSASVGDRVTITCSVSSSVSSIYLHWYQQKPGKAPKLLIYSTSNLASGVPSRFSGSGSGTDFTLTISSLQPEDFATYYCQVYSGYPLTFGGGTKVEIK

- Variants of: B1
- measurement-notes: yeast display scFab, FACS + sequencing
- recorded-conditions: with MET
The other results are listed elsewhere or left out. The true hit rate is not given.
experimental-endpoint: antigen binding call

sequence-change	readout-value
YRRKGSGY	binds
VTEGGDVY	no binding
VGTKGDAA	no binding
YERRDVLY	no binding
YEGGGSSA	no binding

We next turn to a different variant, shown below.
The reported value for YRRGSSGA in terms of antigen binding call is binds
